tested on: SK-MEL-28 melanoma; assay: NCI-60 one-dose screen, 48 h (100 = growth as untreated, 0 = no growth, -100 = all killed); details: 10 µM unless noted
The panel holds about 83,000 compounds, 20% with a hit somewhere; the sample as a whole holds those more often.
RECORDED_ENDPOINT: growth (%)
Kindly answer with a numeric value in %, unit omitted.

> print(dat)
                                test.smiles  recorded.endpoint  assay.value
1  C=C(C)[C@@H]1CC[C@]2(C(=O)N3CCN(C)CC3)CC[C@]3(C)[C@H](CC[C@@H]4[C@@]5(C)CC[C@H](O)C(C)(C)[C@@H]5CC[C@]43C)[C@@H]12             growth        -85.1
2  CCOC(=O)CSc1nc2ccccc2c(=O)n1Cc1ccc(S(N)(=O)=O)cc1             growth          104
3  O=S(=O)(NCCNc1nccc(-c2c(-c3cccc(O)c3)nc3occn23)n1)c1ccc(Cl)cc1             growth         48.2

Can you look up the measured growth of CN(CCN(C)c1ccc(C(=N)N)cc1)c1ccc(C(=N)N)cc1 for me?
108

GET /values?readout=growth&item= Nc1c(C(=O)Nc2cccc3cnccc23)sc2nc3c(cc12)CN(Cc1ccccc1)CC3
111

What value of growth has been recorded for this entry: COc1cccc(C(=O)NNc2nc(Cl)nc(N3CCN(C(c4ccccc4)c4ccccc4)CC3)n2)c1
89.1

Recorded growth of COc1cc(C2=C(c3cn(C)c4ccccc34)COC2=O)cc(OC)c1OC , please.
21.3

Record request: growth value, item CCOC(=O)c1cc(C(=O)c2ccc(OC)cc2)n2ccc(/C=C/c3cc[n+](CC(=O)c4ccc(OC)cc4)cc3)cc12
103

----------
system: UACC-257 melanoma; experiment: NCI-60 one-dose screen, 48 h (100 = growth as untreated, 0 = no growth, -100 = all killed); details: 10 µM unless noted
Compounds without any hit were thinned out: in the full panel of roughly 83,000, 20% have a hit.
Parameter: growth. Scope: all listed entries.
Report as a plain number; the unit % is understood.

> print(dat)
                                   compound  recorded.endpoint  assay.value
1             Cc1cc2cc3ccc(N(C)C)cc3nc2cc1N             growth        -1.21
2  CN1CCN(C(=O)[C@]23CCC(C)(C)C[C@H]2C2=CC[C@@H]4[C@@]5(C)C/C(=C/c6cccnc6)C(=O)C(C)(C)[C@@H]5CC[C@@]4(C)[C@]2(C)CC3)CC1             growth         43.7
3  Cc1c(C(=O)NCCC(=O)NO)sc2ncnc(Nc3ccc(NC(=O)Nc4cccc(C(F)(F)F)c4)cc3)c12             growth          108

Record request: growth value, item Nc1c(C(=O)Nc2cccc3cnccc23)sc2nc3c(cc12)C(=O)CCC3
95.6

Given Cn1cc(CC2CC(=O)N(c3ccccc3)C2=O)sc1=NC(=O)c1ccccc1 (stereo not drawn) , state its recorded growth.
98

Query: growth; subject: COc1cc(/C=C/C(=O)c2nc3cc(F)ccc3nc2C)cc(OC)c1OC
74.1

# input compound: CC(=O)OC[C@]12CC[C@@H](C(=O)CBr)[C@@H]1[C@H]1CC[C@@H]3[C@@]4(C)CC[C@H](OC(C)=O)C(C)(C)[C@@H]4CC[C@@]3(C)[C@]1(C)CC2 ; wanted: its growth
108

Please look up its growth: CN1CCN(c2ccc(NC3=C(Cl)C(=O)c4ncccc4C3=O)cc2C(F)(F)F)CC1
-56.8

Entry under review: C=C1C(=O)O[C@H]2[C@H]1CC/C(COC(=O)NCC(C)c1ccc(CC(C)C)cc1)=C\CC[C@@]1(C)O[C@@H]21 (stereo partly drawn) . Reported growth?
56.1

For the compound shown here, OCc1cnccc1NCCCOc1ccccc1 , give the reported growth.
100

May I ask what growth has been recorded for N#Cc1c(-c2cccc([N+](=O)[O-])c2)nc(SCC(=O)c2ccc(Cl)cc2)[nH]c1=O ?
105

Give the measured growth of CCc1c(Cl)nc(N)nc1Nc1ccc(C)c(C)c1 .
105

Return reported growth; argument: COc1cccc2c1c1nc3cc(C)c(C)cc3nc1n2CCN(C)C
8.52

Fill blank: measured growth of the compound CCN(CC)CCn1c(=O)c2cc(OC)c(OC)cc2c2ccc3cc4c(cc3c21)OCO4 is ____.
41.3

What does the record list as growth for CCN1C(=O)/C(=C/C(=O)OC)S/C1=N\NC(=O)c1cc2ccc1/C=C\c1ccc(cc1)/C=C\2 ?
92.7

Requested read-out: growth. Entry: CC(=O)Nc1ccc(-c2ccc3c(c2)NC(=O)/C3=C\c2ccc[nH]2)cc1
119

For O=C(c1nc2ccccc2[nH]1)C1C(c2ccc(Cl)cc2)C2CC3CCCC[C@H]3N2[C@@]12C(=O)Nc1cc(Cl)ccc12 (stereo partly drawn) , what is its reported growth?
45.7

Entry COc1cc2cc(Oc3cccc(NC(=O)Nc4cc(C(F)(F)F)cc(C(F)(F)F)c4)c3)c(C)nc2cc1OC has what growth?
-4.68
